# System: YAPC
# protocolDescription: MTT cell viability assay
# Assay type: cell-based
# assayConditions: Homo sapiens, calculated via GraphPad QuickCalcs from MTT IC50 and slope factor
# Experimental: Distinct MTT cell viability and crystal violet cell proliferation assays were performed to assess the cytotoxicity of the compounds 1–6 on 14 human cancer cell lines. […] The formazan can be photometrically detected after solubilization and allows for indirect conclusions about the viability of the cells as an IC50 value. […] The effect of the pentathiepins on the viability of the cell lines was assessed via an MTT assay, performed as previously described. […]
readoutKind: IC90 (µM)

[
  {
    "molecule": "CCOc1c2c(c3ccc(C(=O)N4CCCCC4)cn13)SSSSS2 [Compound 2]",
    "observedResult": 4.26
  },
  {
    "molecule": "CCOc1c2c(c3ccc(C(=O)N4CCN(S(=O)(=O)c5ccc(C)cc5)CC4)cn13)SSSSS2 [Compound 6]",
    "observedResult": 17.9
  },
  {
    "molecule": "CCOc1c2c(c3ccc(C(=O)N(CC)CC)cn13)SSSSS2 [Compound 4]",
    "observedResult": 3.7
  },
  {
    "molecule": "CCOc1c2c(c3cnc4[nH]c(-c5ccc(OC)cc5)cc4n13)SSSSS2 [Compound 1]",
    "observedResult": 2.47
  },
  {
    "molecule": "CCOc1c2c(c3ccc(C(=O)N4CCN(C(=O)c5ccc(F)cc5)CC4)cn13)SSSSS2 [Compound 5]",
    "observedResult": 2.2
  },
  {
    "molecule": "CCOc1c2c(c3ccc(C(=O)N4CCOCC4)cn13)SSSSS2 [Compound 3]",
    "observedResult": 2.24
  }
]
